Please respond with reported protease stability score for every item in the list.
experiment: protease stability score; higher = more stable; yeast display proteolysis, trypsin and chymotrypsin;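 also: relative to predicted unfolded state with 0 unfolded-like and 1 meaning tenfold more protease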

Problem: Item `SEEEEKRRKSAEDFMRSLVTGDEDDLSRLADPHVRLDINGKEHHGMEEFKRLLSEFWEEMGIKHVRIRRIDIQGNKAILHTEVDWNGRIHEVTIDVQTYNGRIKSVKVIIH` has what recorded protease stability score?
Solution: 1.24

Problem: Item `SEDIEELRKVFEDWVRILRTGDEKSHKELMDPTYRNDQGEFHYHGMEDLEKFTRRYDHVNLIFRDMRLVNGVARVDGEIQLHQGDFKIDTHVIIYMLKIDGQWRIRSIEIR` has what recorded protease stability score?
Solution: 2.08

Problem: Item `DEENERVHQALRDWRHIHRTGDEESTRHNMDPNARLDVNGVEVHGMEKVSEMFVELRIEHLHLERVHTQGEKVEVHTHVEVRQGDKRQEVKVIIFYIKINGRWFVERFEIH` has what recorded protease stability score?
Solution: 0.85

Problem: Item `DNEEKDNKTATKLLLDWLRTGDEESMSRNADPNTRLEIGDKEFHGREEVLRHLHELKRHFGIERFEVDIERVEIYGDKVVIHSRMNVNGQRREVIFIDRKIDGRWIFKSIELR` has what recorded protease stability score?
Solution: 1.13

Problem: Item `DHVDEETEKMTNEITKALLTGDEDRLLELADPHVRVIVHVGDKTIHLVGRELMVEEYRRWVKEAGFDKVHHEKKHSDFVDGRAEVHSKVDVGDKHVEYRIIITKVNGKWVIKSIIIIVR` has what recorded protease stability score?
Solution: 2.15

Problem: Item `DEEEQAASHLEELIFRVIETGDWRNFYKMMDPDVRLDFNGQEYHGRENVTEAWHNSFHDLGIKHIELRTKNSQGDFLHLNFIVRYNGREFNVHFNWHVIDGRMKLIDIRVEHI` has what recorded protease stability score?
Solution: 0.585
